Test system: MDA-MB-435
assay-comment: NCI panel growth inhibition, sulforhodamine B
Type: cell-based
condition: Homo sapiens; MDA-MB-435, Breast cancer; drug for last 48 h of 72 h
Source text: Comparison of anticancer activities of the 1,3-substituted adamantane derivatives, 1,3-bis(4-aminophenyl)adamantane (1,3-DPANH2), 1,3-bis(4-(4-aminophenoxy)phenyl)adamantane (1,3-DPAONH2), 1,3-bis(4-(4-amino-3-hydroxy)phenyl)adamantane (1,3-DPA/OH/NH2) and 1,3-bis(4-(4-amino-2-trifluoromethylphenoxy)phenyl)adamantane (1,3-DPA/CF3/NH2) as shown in FIG. 1 were synthesized in the present invention. […]
Below is a list of entries, each paired with its recorded IC50 value.
Write down the numeric answer in µM and omit the unit.

For record Nc1ccc(Oc2ccc(C3(c4ccc(Oc5ccc(N)c(O)c5)cc4)C4CC5CC(C4)CC3C5)cc2)cc1O the listed IC50 is 2.3

The molecule Nc1ccc(Oc2ccc(C3(c4ccc(Oc5ccc(N)cc5)cc4)C4CC5CC(C4)CC3C5)cc2)cc1 showed IC50 equal to 6.04

Noted for Nc1ccc(Oc2ccc(C34CC5CC(C3)CC(c3ccc(Oc6ccc(N)cc6C(F)(F)F)cc3)(C5)C4)cc2)c(C(F)(F)F)c1 : its IC50 reads 24.2

Record summary for Nc1ccc(Oc2ccc(C34CC5CC(C3)CC(c3ccc(Oc6ccc(N)c(O)c6)cc3)(C5)C4)cc2)cc1O : reported IC50 = 1.92

The molecule Nc1ccc(C2(c3ccc(N)cc3)C3CC4CC(C3)CC2C4)cc1 showed IC50 equal to 14.7

Just so you know, measured IC50 for Nc1ccc(Oc2ccc(C34CC5CC(C3)CC(c3ccc(Oc6ccc(N)cc6)cc3)(C5)C4)cc2)cc1 came out at 5.22

* * *

Test system: UO-31
assay-comment: NCI panel growth inhibition, sulforhodamine B
Format: cell-based
condition: Homo sapiens; UO-31, Renal cancer; drug for last 48 h of 72 h
Description: Comparison of anticancer activities of the 1,3-substituted adamantane derivatives, 1,3-bis(4-aminophenyl)adamantane (1,3-DPANH2), 1,3-bis(4-(4-aminophenoxy)phenyl)adamantane (1,3-DPAONH2), 1,3-bis(4-(4-amino-3-hydroxy)phenyl)adamantane (1,3-DPA/OH/NH2) and 1,3-bis(4-(4-amino-2-trifluoromethylphenoxy)phenyl)adamantane (1,3-DPA/CF3/NH2) as shown in FIG. 1 were synthesized in the present invention. […]
IC50: recorded values
In your response, put the unit directly after the numeric value.

// known answers, use as guide
Nc1ccc(C2(c3ccc(N)cc3)C3CC4CC(C3)CC2C4)cc1 18.3 µM
Nc1ccc(Oc2ccc(C34CC5CC(C3)CC(c3ccc(Oc6ccc(N)cc6)cc3)(C5)C4)cc2)cc1 13.6 µM
Nc1ccc(Oc2ccc(C34CC5CC(C3)CC(c3ccc(Oc6ccc(N)c(O)c6)cc3)(C5)C4)cc2)cc1O 1.95 µM
Nc1ccc(Oc2ccc(C3(c4ccc(Oc5ccc(N)c(O)c5)cc4)C4CC5CC(C4)CC3C5)cc2)cc1O 1.85 µM
Nc1ccc(Oc2ccc(C34CC5CC(C3)CC(c3ccc(Oc6ccc(N)cc6C(F)(F)F)cc3)(C5)C4)cc2)c(C(F)(F)F)c1 39.1 µM
Nc1ccc(C23CC4CC(C2)CC(c2ccc(N)cc2)(C4)C3)cc1 4.87 µM

Entry Nc1ccc(Oc2ccc(C3(c4ccc(Oc5ccc(N)cc5)cc4)C4CC5CC(C4)CC3C5)cc2)cc1 — recorded IC50 = 3.02 µM

* * *

Tested on: 786-0
assay-comment: NCI panel growth inhibition, sulforhodamine B
Type: cell-based
condition: Homo sapiens; 786-0, Renal cancer; drug for last 48 h of 72 h
Excerpt: Comparison of anticancer activities of the 1,3-substituted adamantane derivatives, 1,3-bis(4-aminophenyl)adamantane (1,3-DPANH2), 1,3-bis(4-(4-aminophenoxy)phenyl)adamantane (1,3-DPAONH2), 1,3-bis(4-(4-amino-3-hydroxy)phenyl)adamantane (1,3-DPA/OH/NH2) and 1,3-bis(4-(4-amino-2-trifluoromethylphenoxy)phenyl)adamantane (1,3-DPA/CF3/NH2) as shown in FIG. 1 were synthesized in the present invention. […]
pIC50: −log10 of the molar value.
Returns one of TRUE or FALSE; TRUE when pIC50 is >= 5.

Please review the following examples before continuing.
Nc1ccc(Oc2ccc(C34CC5CC(C3)CC(c3ccc(Oc6ccc(N)c(O)c6)cc3)(C5)C4)cc2)cc1O TRUE
Nc1ccc(Oc2ccc(C34CC5CC(C3)CC(c3ccc(Oc6ccc(N)cc6C(F)(F)F)cc3)(C5)C4)cc2)c(C(F)(F)F)c1 FALSE

**Query** Confirm if pIC50 reported for the molecule Nc1ccc(C23CC4CC(C2)CC(c2ccc(N)cc2)(C4)C3)cc1 is 5 or above.
**Result** FALSE

**Query** I'd appreciate it if you could say whether Nc1ccc(Oc2ccc(C3(c4ccc(Oc5ccc(N)cc5)cc4)C4CC5CC(C4)CC3C5)cc2)cc1 has pIC50 at least equal to 5.
**Result** TRUE

**Query** Has Nc1ccc(Oc2ccc(C3(c4ccc(Oc5ccc(N)c(O)c5)cc4)C4CC5CC(C4)CC3C5)cc2)cc1O a recorded pIC50 greater than or equal to 5?
**Result** TRUE

* * *

Test system: MDA-N
assay-comment: NCI panel growth inhibition, sulforhodamine B
Format: cell-based
condition: Homo sapiens, Breast cancer, drug for last 48 h of 72 h
measured-endpoint: IC50
Report field: quantity (unit follows the number).

A selection of reference data follows.
compound	test-system	IC50
Nc1ccc(Oc2ccc(C3(c4ccc(Oc5ccc(N)c(O)c5)cc4)C4CC5CC(C4)CC3C5)cc2)cc1O [DPA]	MDA-N	2.14 µM
Nc1ccc(Oc2ccc(C34CC5CC(C3)CC(c3ccc(Oc6ccc(N)c(O)c6)cc3)(C5)C4)cc2)cc1O [1,3-DPA/OH/NH2]	MDA-N	1.58 µM

Reading of IC50 for Nc1ccc(Oc2ccc(C34CC5CC(C3)CC(c3ccc(Oc6ccc(N)cc6C(F)(F)F)cc3)(C5)C4)cc2)c(C(F)(F)F)c1 [1,3-DPA/CF3/NH2] with MDA-N: 36.7 µM

The measured IC50 that Nc1ccc(Oc2ccc(C34CC5CC(C3)CC(c3ccc(Oc6ccc(N)cc6)cc3)(C5)C4)cc2)cc1 [1,3-DPAONH2] showed for MDA-N is 4.33 µM

* * *

The reader will find reported IC50 values listed item by item below.
System: T-47D
assay-comment: NCI panel growth inhibition, sulforhodamine B
Assay type: cell-based
condition: Homo sapiens, T47D, Breast cancer, drug for last 48 h of 72 h
Please reply with the bare figure in µM and do not write the unit itself.

// known answers, use as guide
molecule	IC50 [µM]
Nc1ccc(Oc2ccc(C34CC5CC(C3)CC(c3ccc(Oc6ccc(N)c(O)c6)cc3)(C5)C4)cc2)cc1O [1,3-DPA/OH/NH2]	1.66
Nc1ccc(Oc2ccc(C34CC5CC(C3)CC(c3ccc(Oc6ccc(N)cc6C(F)(F)F)cc3)(C5)C4)cc2)c(C(F)(F)F)c1 [1,3-DPA/CF3/NH2]	15.1
Nc1ccc(C2(c3ccc(N)cc3)C3CC4CC(C3)CC2C4)cc1 [2,2-DPANH2, 2,2-bis(4-aminophenyl)adamantane]	14.4

For Nc1ccc(Oc2ccc(C3(c4ccc(Oc5ccc(N)c(O)c5)cc4)C4CC5CC(C4)CC3C5)cc2)cc1O [DPA] the molecule record lists IC50 as 4.13

For this molecule ( Nc1ccc(Oc2ccc(C34CC5CC(C3)CC(c3ccc(Oc6ccc(N)cc6)cc3)(C5)C4)cc2)cc1 [1,3-DPAONH2] ), measured IC50 is 5.67

* * *

Tested on: M14
assay-comment: NCI panel growth inhibition, sulforhodamine B
Format: cell-based
condition: Homo sapiens; M14, Melanoma; drug for last 48 h of 72 h
Binary call on IC50 with cut-off 10 µM: strictly below means YES, and equality or higher means NO.

Check out these entries, answers already filled in.
Nc1ccc(C23CC4CC(C2)CC(c2ccc(N)cc2)(C4)C3)cc1 NO
Nc1ccc(Oc2ccc(C3(c4ccc(Oc5ccc(N)cc5)cc4)C4CC5CC(C4)CC3C5)cc2)cc1 YES
Nc1ccc(Oc2ccc(C3(c4ccc(Oc5ccc(N)c(O)c5)cc4)C4CC5CC(C4)CC3C5)cc2)cc1O YES
Nc1ccc(C2(c3ccc(N)cc3)C3CC4CC(C3)CC2C4)cc1 NO
Nc1ccc(Oc2ccc(C34CC5CC(C3)CC(c3ccc(Oc6ccc(N)cc6)cc3)(C5)C4)cc2)cc1 YES

**Query** Criterion: IC50 strictly below 10 µM. Is it met by Nc1ccc(Oc2ccc(C34CC5CC(C3)CC(c3ccc(Oc6ccc(N)c(O)c6)cc3)(C5)C4)cc2)cc1O ?
**Result** YES

**Query** Strictly below 10 µM in IC50? Nc1ccc(Oc2ccc(C34CC5CC(C3)CC(c3ccc(Oc6ccc(N)cc6C(F)(F)F)cc3)(C5)C4)cc2)c(C(F)(F)F)c1
**Result** NO

* * *

Tested on: OVCAR-3
assay-comment: NCI panel growth inhibition, sulforhodamine B
Assay type: cell-based
condition: Homo sapiens; OVCAR-3, Ovarian cancer; drug for last 48 h of 72 h
Source text: Comparison of anticancer activities of the 1,3-substituted adamantane derivatives, 1,3-bis(4-aminophenyl)adamantane (1,3-DPANH2), 1,3-bis(4-(4-aminophenoxy)phenyl)adamantane (1,3-DPAONH2), 1,3-bis(4-(4-amino-3-hydroxy)phenyl)adamantane (1,3-DPA/OH/NH2) and 1,3-bis(4-(4-amino-2-trifluoromethylphenoxy)phenyl)adamantane (1,3-DPA/CF3/NH2) as shown in FIG. 1 were synthesized in the present invention. […]
measured-endpoint: pIC50
Just the number, please; pIC50 means minus log10 of the concentration in mol/L.

Some compounds with known pIC50 results, for comparison:
compound	quantitative-readout
Nc1ccc(Oc2ccc(C3(c4ccc(Oc5ccc(N)c(O)c5)cc4)C4CC5CC(C4)CC3C5)cc2)cc1O [DPA]	5.81
Nc1ccc(Oc2ccc(C34CC5CC(C3)CC(c3ccc(Oc6ccc(N)cc6)cc3)(C5)C4)cc2)cc1 [1,3-DPAONH2]	5.51
Nc1ccc(C2(c3ccc(N)cc3)C3CC4CC(C3)CC2C4)cc1 [2,2-DPANH2, 2,2-bis(4-aminophenyl)adamantane]	4.96

Okay, next one:
Observed pIC50 on OVCAR-3, entry Nc1ccc(C23CC4CC(C2)CC(c2ccc(N)cc2)(C4)C3)cc1 [1,3-DPANH2, 1,3-bis(4-aminophenyl)adamantane] , equals 4.31

Data provenance is patent US7365231B2.
